Reported TGI values follow for various compounds
system: LXFL 529 NSCLC; test: NCI tumour cell line growth inhibition, 48 h
ASSAY_ENDPOINT: TGI

>>> recorded_measurement("O=C1/C(=C/c2cc(O)c(O)c(O)c2)Oc2cc(O)cc(OC3OC(CO)C(O)C(O)C3O)c21 (centres undefined)")
"28 µM"
>>> recorded_measurement("CCOc1ccc2c(c1)[n+]([O-])c(C(N)=O)c(N)[n+]2[O-]")
"> 100 µM"
>>> recorded_measurement("CSC(=Nc1ccc([N+](=O)[O-])cc1C#N)NC(=O)c1ccccc1")
"> 100 µM"
>>> recorded_measurement("Cc1cccc(-c2nc(=S)[nH][nH]2)c1")
"> 100 µM"

---

Reported TGI values follow for various compounds
system: SN12C renal; assay: NCI tumour cell line growth inhibition, 48 h
ASSAY_ENDPOINT: TGI

>>> recorded_measurement("CCN(Cc1ccccc1)c1ccc(/C=C2\\COc3ccccc3C2=O)cc1")
"> 1000 µM"
>>> recorded_measurement("Cc1ccc(S(=O)(=O)N(CC(O)COc2ccccc2)c2c(F)c(F)c(F)c(F)c2F)cc1 (configuration not stated)")
"37.7 µM"
>>> recorded_measurement("Fc1ccc(F)c(C=NC23CC4CC(CC(C4)C2)C3)c1")
"> 10 µM"
>>> recorded_measurement("C[C@]12CCC(=O)C=C1CC[C@@H]1[C@@H]2CC[C@]2(C)C(=O)/C(=C/c3ccc([N+](=O)[O-])cc3)C[C@@H]12")
"> 100 µM"
>>> recorded_measurement("CCCCCCCCCCCC1=NC(C)(C)CN1C(C)C")
"16.7 µM"
>>> recorded_measurement("CN(C)CC1CCC/C(=C\\c2ccc(Cl)c(Cl)c2)C1=O (configuration not stated)")
"8.79 µM"
>>> recorded_measurement("CC1(N2CCOCC2)CC2C(=[N+]1[O-])CCC/C2=N/O (configuration not stated)")
"> 100 µM"
>>> recorded_measurement("CN1CCN(c2ccc3nc(-c4[nH]ncc4Nc4ncnc5[nH]ccc45)[nH]c3c2)CC1")
"5.71 µM"
>>> recorded_measurement("Nc1nc(N)c2cc(-c3cc4ccccc4[nH]3)ccc2n1")
"> 100 µM"
>>> recorded_measurement("Cc1ccc2[nH]c3c(c2c1)C1CCC(C(C)(C)C)CC1C1C(=O)N(c2ccc(Oc4ccccc4)cc2)C(=O)C31 (configuration not stated)")
"37 µM"
>>> recorded_measurement("C[C@]12C(=O)OC[C@H](c3ccccc3)N1C(=O)N(Cc1ccccc1)[C@@H]2CO")
"> 100 µM"
>>> recorded_measurement("O=C(Nc1ccccc1/C=C/c1n[nH]c2ccccc12)c1ccccc1")
"5.4 µM"
>>> recorded_measurement("O=C(O)CN(CCN(CC(=O)O)CC(=O)O)CCN(CC(=O)O)CC(=O)O")
"13.9 µM"
>>> recorded_measurement("CN(C)c1ccc(-c2c(C#N)c(-c3ccccc3)n(NS(=O)(=O)c3ccccc3)c(=O)c2C#N)cc1")
"> 100 µM"
>>> recorded_measurement("O=c1[nH]nc(-c2ccc3ccccc3c2)[nH]1")
"> 100 µM"
>>> recorded_measurement("Cc1cnoc1/N=C1\\C=C(Nc2oncc2C)C(=O)c2ccccc21")
"> 100 µM"
>>> recorded_measurement("Cc1cccc(C)c1NC(=S)N/C=C(\\C#N)C(N)=O")
"> 100 µM"
>>> recorded_measurement("COc1cc(O)c2c(=O)c3cccc(C)c3[nH]c2c1")
"> 10 µM"
>>> recorded_measurement("COc1cc(OC)c(OC)cc1/C=C/c1ccccn1")
"> 10 µM"
>>> recorded_measurement("CC(Nc1cccc(Cl)c1)c1ccncc1 (configuration not stated)")
"> 100 µM"
>>> recorded_measurement("CCN(CC)P(=O)(c1ccc2c(c1)OCCOCCOCCOCCO2)N(CC)CC")
"> 100 µM"
>>> recorded_measurement("COc1ccc(/C=C2\\C(=O)N(C(=O)c3ccc(NC(C)=O)cc3)N=C2C)cc1OC")
"> 100 µM"
